Value source: paper PMC12115342

Test: Equilibrium solubility of TDL in oils, surfactants and cosurfactants
Assay type: physicochemical
Settings: 25 °C, thermodynamic from solid; in N-methyl pyrrolidone, 25 ± 1 °C, 72 h
measuredQuantity: solubility at 72 h (mg/mL)
The reply should be a number in mg/mL, with the unit left off.

Enquiry: # get_value(readout='solubility at 72 h', item= CN1CC(=O)N2[C@H](c3ccc4c(c3)OCO4)c3[nH]c4ccccc4c3C[C@@H]2C1=O )
Return: 325

* * *

Experiment: Equilibrium solubility of TDL in oils, surfactants and cosurfactants
Format: physicochemical
Conditions: 25 °C, organic solvent or mixture, thermodynamic from solid; in PEG-400
measuredQuantity: solubility at 72 h (mg/mL)
The reply should be a number in mg/mL, with the unit left off.

Enquiry: # get_value(readout='solubility at 72 h', item= CN1CC(=O)N2[C@H](c3ccc4c(c3)OCO4)c3[nH]c4ccccc4c3C[C@@H]2C1=O )
Return: 14
